Molecular target: COX-2 (Homo sapiens)
Sequence (P35354 18-604): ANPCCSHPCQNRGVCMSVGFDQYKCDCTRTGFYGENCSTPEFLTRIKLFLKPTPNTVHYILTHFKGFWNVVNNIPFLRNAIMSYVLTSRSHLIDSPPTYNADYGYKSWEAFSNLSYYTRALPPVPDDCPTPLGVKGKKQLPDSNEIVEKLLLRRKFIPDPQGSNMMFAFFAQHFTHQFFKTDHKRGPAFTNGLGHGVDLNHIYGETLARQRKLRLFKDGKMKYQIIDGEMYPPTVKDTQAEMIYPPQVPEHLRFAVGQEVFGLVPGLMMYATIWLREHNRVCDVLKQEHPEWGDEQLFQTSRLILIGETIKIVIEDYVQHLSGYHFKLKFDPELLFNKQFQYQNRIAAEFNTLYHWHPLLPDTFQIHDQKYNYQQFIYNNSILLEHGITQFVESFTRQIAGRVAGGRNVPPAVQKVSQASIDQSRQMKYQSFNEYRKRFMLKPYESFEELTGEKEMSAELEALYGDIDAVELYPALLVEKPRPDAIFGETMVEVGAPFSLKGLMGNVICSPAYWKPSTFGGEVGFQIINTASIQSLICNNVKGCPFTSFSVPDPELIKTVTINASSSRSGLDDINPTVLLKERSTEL
Assay: fluorescent COX-2 inhibitor screening kit
Assay type: biochemical
value.kind: IC50 (nM)
Quick note: give the figure in nM, leave out the unit.

The reported IC50 of the compound O=c1c(O)c(-c2ccc(O)cc2)oc2cc(O)cc(O)c12 [compound 11, Kaempferol] was 360

Reference source: paper PMC9392260
